Assay: Hepatocyte stability, 0.01% final DMSO, 1 μM substrate (t1/2^b)
Format: in vitro ADME
Conditions: human, hepatocytes, TA with 0.01% final DMSO, 1 μM substrate, samples at 0, 1, 3, 6 hours; read-out: human hepatocyte t½^b
reportedProperty: half-life at 1 μM

Request: Requested read-out: half-life at 1 μM. Entry: CC(Nc1nc(N)nc(N)c1C(N)=O)c1nc2cccc(Cl)c2c(=O)n1-c1ccccc1 (single isomer, unassigned) [Compound 183a]
Result: 6 to 10 h

Request: Okay, and CCC(Nc1nc(N)nc(N)c1C#N)c1nc2c(C)ccc(F)c2c(=O)n1-c1cc(F)cc(F)c1 (single isomer, unassigned) [Compound 37a] ?
Result: 3 to 6 h

Request: Okay, and CC(Nc1nc(N)nc(N)c1C#N)c1nc2cccc(F)c2c(=O)n1-c1cc(F)cc(Cl)c1 (single isomer, unassigned) [Compound 44a] ?
Result: 1 to 3 h
